- System: CP-04
- Protocol Summary: SPR
Value Type: pKd
The quantity pKd is defined as the negative base-10 logarithm of the molar concentration.

Consider the binder CD59 (immobilized for SPR) (receptor) LQCYNCPNPTADCKTAVNCSSDFDACLITKAGLQVYNKCWKFEHCNFNDVTTRLRENELTYYCCKKDLCNFNEQLEN and give its measured pKd.
7.92
